# pKi listing for each entry below
biological target: Adenosine receptor A3 (Homo sapiens, UniProt P0DMS8); assay: Displacement of [3H]PSB-11 from human adenosine A3 receptor expressed in CHO cells; format: cell-based
Sequence (P0DMS8 whole entry): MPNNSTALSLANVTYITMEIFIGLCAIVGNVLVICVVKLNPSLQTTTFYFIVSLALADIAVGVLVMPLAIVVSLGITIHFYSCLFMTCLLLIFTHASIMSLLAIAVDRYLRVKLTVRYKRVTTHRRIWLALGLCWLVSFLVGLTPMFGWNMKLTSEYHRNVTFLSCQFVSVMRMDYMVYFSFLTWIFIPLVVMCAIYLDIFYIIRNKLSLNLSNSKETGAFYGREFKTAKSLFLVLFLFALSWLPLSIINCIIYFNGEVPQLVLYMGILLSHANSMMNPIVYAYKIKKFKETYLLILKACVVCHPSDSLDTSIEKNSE
pKi: −log10 of the molar value.
readout_label: pKi

compound=CCn1c(=O)c2c(nc3n2CCCN3CCc2ccc(OC)c(OC)c2)n(CC)c1=O assay_result="< 5.00"
compound=C#CCn1c(=O)c2c(ncn2C)n(C)c1=O assay_result="< 5.00"
compound=Cn1c(=O)c2c(nc3n2CCCN3CC(=O)N2CCN(Cc3ccccc3)CC2)n(C)c1=O assay_result="< 6.52"
compound=C#CCn1c(=O)c2c(nc3n2CCCN3CCc2cccs2)n(C)c1=O assay_result="< 6.00"
compound=C#CCn1c(=O)c2c(nc3n2CCCN3CCc2ccc(O)cc2)n(C)c1=O assay_result="< 5.00"
compound=Cn1c(=O)c2c(nc3n2CCCN3Cc2cccc(Cl)c2)n(C)c1=O assay_result=4.82
compound=Cn1c(=O)c2c(nc3n2CCCN3Cc2cc(Cl)cc(Cl)c2)n(C)c1=O assay_result="< 5.00"
compound=CCn1c(=O)c2c(nc3n2CCCN3C2CCCCC2)n(CC)c1=O assay_result="< 5.00"
compound=C#CCn1c(=O)c2c(nc3n2CCCN3C2CCCCC2)n(C)c1=O assay_result="< 5.00"
compound=Cn1c(=O)c2c(nc3n2CCCN3CCc2ccc(Cl)c(Cl)c2)n(C)c1=O assay_result="< 5.00"
compound=CCCn1c(=O)c2c(nc3n2CCCN3CC(=O)N2CCN(c3ccc(Cl)cc3)CC2)n(CCC)c1=O assay_result=6.12
compound=CCn1c(=O)c2c(nc3n2CCCN3c2cccc(OC)c2)n(CC)c1=O assay_result=5.17
compound=C#CCn1c(=O)c2c(nc3n2CCCN3Cc2cccs2)n(C)c1=O assay_result="< 5.00"
compound=CCn1c(=O)c2c(nc3n2CCCN3c2ccc(F)cc2)n(CC)c1=O assay_result="< 5.00"
compound=Cn1c(=O)c2c(nc3n2CCCN3CC(=O)N2CCN(c3ccccc3)CC2)n(C)c1=O assay_result="< 5.00"
compound=Cn1c(=O)c2c(nc3n2CCCN3CCc2ccc(Cl)cc2)n(C)c1=O assay_result="< 5.00"
compound=C#CCn1c(=O)c2c(nc3n2CCCN3c2cc(OC)cc(OC)c2)n(C)c1=O assay_result="< 6.00"
compound=C#CCn1c(=O)c2c(nc3n2CCCN3CCc2cc(OC)c(OC)c(OC)c2)n(C)c1=O assay_result="< 6.00"
compound="C#CCn1c(=O)c2c(nc3n2CCCN3CC2CCCO2)n(C)c1=O (stereo not drawn)" assay_result="< 5.00"
compound=Cn1c(=O)c2c(nc3n2CCCN3CC(=O)N2CCN(Cc3ccc(C(F)(F)F)cc3)CC2)n(C)c1=O assay_result="< 5.00"
compound=Cn1c(=O)c2c(nc3n2CCCN3Cc2ccc(Cl)cc2)n(C)c1=O assay_result="< 5.00"
compound=CCCn1c(=O)c2c(nc3n2CCCN3CC(=O)N2CCN(Cc3ccc(C(F)(F)F)cc3)CC2)n(CCC)c1=O assay_result=6.27
compound=C#CCn1c(=O)c2c(nc3n2CCCN3c2cccc(OC)c2)n(C)c1=O assay_result="< 6.00"

---

Molecular target: Adenosine receptor A1 (Homo sapiens, UniProt P30542)
Sequence (P30542 whole entry): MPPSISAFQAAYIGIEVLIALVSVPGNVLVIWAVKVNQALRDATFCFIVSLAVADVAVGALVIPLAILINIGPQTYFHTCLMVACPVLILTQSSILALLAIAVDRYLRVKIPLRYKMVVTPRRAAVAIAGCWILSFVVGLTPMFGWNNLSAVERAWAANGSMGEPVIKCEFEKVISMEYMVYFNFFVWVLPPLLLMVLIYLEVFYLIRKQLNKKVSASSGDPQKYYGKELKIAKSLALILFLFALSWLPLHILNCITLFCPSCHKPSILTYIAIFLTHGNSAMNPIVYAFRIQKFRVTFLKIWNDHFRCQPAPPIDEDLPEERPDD
Experiment: Binding affinity to human adenosine A1 receptor
readout_label: Ki (µM)

structure_as_smiles=Cn1c(=O)c2c(nc3n2CCCN3c2ccc(F)cc2)n(C)c1=O assay_result=16.7

These measurements were taken from ChEMBL document CHEMBL3091303.
